# System: MOLM-13 cells
# procedure summary: Cell viability assay (CELLTITER-GLO), MOLM-13 cells
# Format: cell-based
# condition info: Homo sapiens, MOLM-13, 72 h; Table 2; compound at 10 μM, 3 days; read-out: Effect on MOLM-13 cell viability (% DMSO)
# Protocol: MOLM-13 cells, MV-4-11 cells, H23, and H358 cells were independently cultured in RPMI 1640 media supplemented with 10% fetal bovine serum, streptomycin and penicillin. The cells were plated in white walled 96-well plates at 4,000 cells/well. The cells were incubated in DMSO (control) or a compound for 3 days at 37° C. under 5% CO2. […] After a 10 min incubation with shaking, luminescence was measured using an ENVISION® multimode plate reader. […]
observation type: viability at 10 µM

INSERT INTO assay_data (compound, result) VALUES
  ('CCC(=O)N1C[C@@H]2C(=O)N(CCCCCCCN3CCC(c4cc(F)cc5c4CN(C4CCC(=O)NC4=O)C5=O)CC3)c3cnc4c(F)c(-c5c(O)cccc5F)c(Cl)cc4c3N2C[C@H]1C (some centres unmarked)', '< 10%');

Problem: State viability at 10 µM (MOLM-13 cells) of C=C(Cl)C(=O)N1CCN(c2ncnc3c(F)c(-c4c(F)cccc4OCCCCCCCN4CCC(c5cc(F)cc6c5CN(C5CCC(=O)NC5=O)C6=O)CC4)c(Cl)cc23)CC1 (centres unmarked) .
Solution: < 10%

Problem: State viability at 10 µM (MOLM-13 cells) of CCC(=O)N1CCN(c2ncnc3c(F)c(-c4c(F)cccc4OCCCCCCCNC(=O)NCc4scc5c4CN(C4CCC(=O)NC4=O)C5=O)c(Cl)cc23)CC1 (centres unmarked) .
Solution: < 10%

Problem: State viability at 10 µM (MOLM-13 cells) of C=CC(=O)N1CCN(c2ncnc3c(F)c(-c4c(O)cccc4F)c(Cl)cc23)C(CC(=O)NCCCCCNC(=O)NCc2cc3c(s2)C(=O)N(C2CCC(=O)NC2=O)C3)C1 (centres unmarked) .
Solution: ≥ 50%

Problem: State viability at 10 µM (MOLM-13 cells) of `C=CC(=O)N1CCN(c2ncnc3c(F)c(-c4c(F)cccc4OCCCNCc4ccc(COc5cccc6c5CN([C@H]5CCC(=O)NC5=O)C6=O)cc4)c(Cl)cc23)CC1` .
Solution: < 10%

----------
# Tested on: MOLM-13 cells
# procedure summary: Cell viability assay (CELLTITER-GLO), MOLM-13 cells
# Format: cell-based
# condition info: Homo sapiens, MOLM-13, 72 h; Table 2; compound at 10 μM, 3 days; read-out: Effect on MOLM-13 cell viability (% DMSO)
# Protocol: MOLM-13 cells, MV-4-11 cells, H23, and H358 cells were independently cultured in RPMI 1640 media supplemented with 10% fetal bovine serum, streptomycin and penicillin. The cells were plated in white walled 96-well plates at 4,000 cells/well. The cells were incubated in DMSO (control) or a compound for 3 days at 37° C. under 5% CO2. […] After a 10 min incubation with shaking, luminescence was measured using an ENVISION® multimode plate reader. […]
observation type: viability at 10 µM

// worked examples, viability at 10 µM included
INSERT INTO assay_data (compound, observation_type, result) VALUES
  ('C=C(Cl)C(=O)N1CCN(c2ncnc3c(F)c(-c4c(F)cccc4OCCCN4CCC(c5cc(F)cc6c5CN(C5CCC(=O)NC5=O)C6=O)CC4)c(Cl)cc23)CC1 (centres unmarked)', 'viability at 10 µM', '< 10%'),
  ('C=C(Cl)C(=O)N1C[C@@H]2C(=O)N(C)c3cnc4c(F)c(-c5c(F)cccc5OCCCCCCCN5CCC(c6cc(F)cc7c6CN(C6CCC(=O)NC6=O)C7=O)CC5)c(Cl)cc4c3N2C[C@H]1C (some centres unmarked)', 'viability at 10 µM', '< 10%');

Problem: Provide one value: measured viability at 10 µM of CCC(=O)N1CC(c2nc3ccc(-c4cc(O)cc5ccccc45)cc3c(=O)n2CCOCCNCc2ccc(OCc3scc4c3CN(C3CCC(=O)NC3=O)C4=O)cc2)C1 (centres unmarked)
Solution: ≥ 50%

----------
# Test system: H358 cells
# procedure summary: Cell viability assay (CELLTITER-GLO), H358 cells
# Assay type: cell-based
# condition info: Table 4; 3 days
# Description: MOLM-13 cells, MV-4-11 cells, H23, and H358 cells were independently cultured in RPMI 1640 media supplemented with 10% fetal bovine serum, streptomycin and penicillin. The cells were plated in white walled 96-well plates at 4,000 cells/well. The cells were incubated in DMSO (control) or a compound for 3 days at 37° C. under 5% CO2. […] After a 10 min incubation with shaking, luminescence was measured using an ENVISION® multimode plate reader. […]
observation type: Inhibition of H358 cells, IC50 (class)

// worked examples, Inhibition of H358 cells, IC50 (class) included
INSERT INTO results (compound, result) VALUES
  ('C=CC(=O)N1CCN(c2ncnc3c(F)c(-c4c(F)cccc4OCCOCCOCCC(=O)NCCNc4cccc5c4C(=O)N(C4CCC(=O)NC4=O)C5=O)c(Cl)cc23)CC1 (centres unmarked) [Compound 1]', 'C′'),
  ('C=CC(=O)N1CCN(c2nc(OCCOCCOCCOCCNc3cccc4c3C(=O)N(C3CCC(=O)NC3=O)C4=O)nc3c2CCN(c2cccc4ccccc24)C3)C[C@H]1C (some centres unmarked) [Compound 47]', 'C′'),
  ('CCC(=O)N1CCN(c2ncnc3c(F)c(-c4c(F)cccc4OCCCCCCCCCCC(=O)N[C@H](C(=O)N4C[C@H](O)C[C@H]4C(=O)NCc4ccc(-c5scnc5C)cc4)C(C)(C)C)c(Cl)cc23)CC1 [Compound 77]', 'C′'),
  ('C=CC(=O)N1CCN(c2ncnc3c(F)c(-c4c(F)cccc4OCCCCCCCNCc4ccc(OCc5scc6c5CN([C@H]5CCC(=O)NC5=O)C6=O)cc4)c(Cl)cc23)CC1 [Compound 24]', 'B′');

Now look at this one.
Problem: Provide one value: measured Inhibition of H358 cells, IC50 (class) of C/C=C(\Cl)C(=O)N1CCN(c2ncnc3c(F)c(-c4c(F)cccc4OCCCCCCCN4CCC(c5cc(F)cc6c5CN(C5CCC(=O)NC5=O)C6=O)CC4)c(Cl)cc23)CC1 (centres unmarked) [Compound 96]
Solution: B′

----------
# Tested on: H358 cells
# procedure summary: Cell viability assay (CELLTITER-GLO), H358 cells
# Format: cell-based
# condition info: Table 4; 3 days
observation type: Inhibition of H358 cells, IC50 (class)

INSERT INTO assay_data (compound, observation_type, result) VALUES
  ('C=C(Cl)C(=O)N1CCN(c2ncnc3c(F)c(-c4c(F)cccc4OCCCCCCCN4CCC(c5cc(F)cc6c5CN(C5CCC(=O)NC5=O)C6=O)C4)c(Cl)cc23)CC1 (stereo not drawn)', 'Inhibition of H358 cells, IC50 (class)', 'B′'),
  ('C=C(Cl)C(=O)N1CCN(c2ncnc3c(F)c(-c4c(F)cccc4OCCC4CCC(CN5CCC(c6cc(F)cc7c6CN(C6CCC(=O)NC6=O)C7=O)CC5)CC4)c(Cl)cc23)CC1 (stereo not drawn)', 'Inhibition of H358 cells, IC50 (class)', 'A′'),
  ('C=CC(=O)N1CCN(c2ncnc3c(F)c(-c4cc(OCCOCCOCCC(=O)NCCNc5cccc6c5CN(C5CCC(=O)NC5=O)C6=O)ccc4F)c(Cl)cc23)CC1 (stereo not drawn) [Compound 38]', 'Inhibition of H358 cells, IC50 (class)', 'D′');

----------
# Test system: H358 cells
# procedure summary: Cell viability assay (CELLTITER-GLO), H358 cells
# Format: cell-based
# condition info: Table 4; 3 days
observation type: Inhibition of H358 cells, IC50 (class)

INSERT INTO results (molecule, result) VALUES
  ('C=C(Cl)C(=O)N1CCN(c2ncnc3c(F)c(-c4c(F)cccc4OCCc4ccc(CCN5CCC(c6cc(F)cc7c6CN(C6CCC(=O)NC6=O)C7=O)CC5)cc4)c(Cl)cc23)C[C@H]1CC#N (stereo partly drawn)', 'A′'),
  ('CCC(=O)N1CCN(c2ncnc3c(F)c(-c4c(F)cccc4OCCCCCCCCCN4CCC(c5cc(F)cc6c5CN(C5CCC(=O)NC5=O)C6=O)CC4)c(Cl)cc23)CC1 (stereo not drawn)', 'B′'),
  ('C=C(Cl)C(=O)N1CCN(c2ncnc3c(F)c(-c4c(F)cccc4OCCCN4CCC(c5cc(F)cc6c5CN(C5CCC(=O)NC5=O)C6=O)CC4)c(Cl)cc23)CC1 (stereo not drawn)', 'B′');

----------
# System: H358 cells
# procedure summary: Cell viability assay (CELLTITER-GLO), H358 cells
# Type: cell-based
# condition info: Table 4; 3 days
observation type: Inhibition of H358 cells, IC50 (class)

// worked examples, Inhibition of H358 cells, IC50 (class) included
INSERT INTO measurements (molecule, subject_of_test, observation_type, result) VALUES
  ('C=C(Cl)C(=O)N1C[C@@H]2C(=O)N(CCCCCCCN3CCC(c4cc(F)cc5c4CN(C4CCC(=O)NC4=O)C5=O)CC3)c3cnc4c(F)c(-c5c(O)cccc5F)c(Cl)cc4c3N2C[C@H]1C (some centres unmarked)', 'H358 cells', 'Inhibition of H358 cells, IC50 (class)', 'B′'),
  ('CCC(=O)N1CCN(c2ncnc3c(F)c(-c4c(F)cccc4OCCCCCCCN4CCC(c5cc6c(cc5F)C(=O)N(C5CCC(=O)NC5=O)C6)CC4)c(Cl)cc23)CC1 (centres unmarked)', 'H358 cells', 'Inhibition of H358 cells, IC50 (class)', 'B′'),
  ('C=C(Cl)C(=O)N1CCN(c2nc(=O)n(-c3ccccc3C(C)C)c3nc(-c4c(F)cccc4OCCCCCCCN4CCC(c5cc(F)cc6c5CN(C5CCC(=O)NC5=O)C6=O)CC4)c(F)cc23)[C@@H](C)C1 (some centres unmarked)', 'H358 cells', 'Inhibition of H358 cells, IC50 (class)', 'A′'),
  ('CCC(=O)N1C[C@@H]2C(=O)N(CCCCCCCN3CCC(c4cc(F)cc5c4CN(C4CCC(=O)NC4=O)C5=O)CC3)c3cnc4c(F)c(-c5c(O)cccc5F)c(Cl)cc4c3N2C[C@H]1C (some centres unmarked)', 'H358 cells', 'Inhibition of H358 cells, IC50 (class)', 'B′');

Problem: Provide one value: measured Inhibition of H358 cells, IC50 (class) of C=C(Cl)C(=O)N1CCN(c2ncnc3c(F)c(-c4c(F)cccc4OCCN4CCC(CCN5CCC(c6cc(F)cc7c6CN(C6CCC(=O)NC6=O)C7=O)CC5)CC4)c(Cl)cc23)CC1 (centres unmarked)
Solution: B′

All figures here come from patent US12630547B2.
